Test system: Collinsella aerofaciens
experimentSummary: growth AUC relative to DMSO control (median of replicates) (fraction); higher = more growth (less inhibition), active = hit call of the paper
conditionSummary: 20 µM; 24 h
reportedProperty: growth AUC

>>> observedvalue("CCC(C)(C)c1ccc(O)cc1")
"1.01 (inactive)"
>>> observedvalue("CCN(CC)c1nc(C)cc(OP(=S)(OC)OC)n1")
"0.989 (inactive)"
>>> observedvalue("COCc1c(F)c(F)c(COC(=O)[C@@H]2[C@@H](C=C(Cl)Cl)C2(C)C)c(F)c1F")
"1 (inactive)"

* * *

Below, each of the compounds is paired with its reported growth AUC value.
Tested on: Odoribacter splanchnicus
experimentSummary: growth AUC relative to DMSO control (median of replicates) (fraction); higher = more growth (less inhibition), active = hit call of the paper
conditionSummary: 20 µM; 24 h
reportedProperty: growth AUC

>>> observedvalue("CCNc1nc(NC(C)C)nc(SC)n1")
0.999
>>> observedvalue("CC1(C)C(C=C(Cl)Cl)[C@@H]1C(=O)O[C@@H](C#N)c1ccc(F)c(Oc2ccccc2)c1 (some centres undefined)")
1.01
>>> observedvalue("O=C1OCC2C1C1(Cl)C(Cl)=C(Cl)C2(Cl)C1(Cl)Cl (centres undefined)")
1.09
>>> observedvalue("COc1nn(CSP(=S)(OC)OC)c(=O)s1")
1.08
>>> observedvalue("CC(Cc1ccc(C(C)(C)C)cc1)CN1C[C@@H](C)O[C@@H](C)C1 (some centres undefined)")
1.07
>>> observedvalue("CC(=O)O.CCCCCCCCCCCCN=C(N)N")
1.02
>>> observedvalue("Cc1cnc2c(C(=O)O)c(Cl)ccc2c1")
0.968
>>> observedvalue("C[n+]1ccc(-c2cc[n+](C)cc2)cc1.O.[Cl-].[Cl-]")
0.873
>>> observedvalue("COC(=O)C(C)(Cl)Cl")
0.956

* * *

Test system: Odoribacter splanchnicus
experimentSummary: growth AUC relative to DMSO control (median of replicates) (fraction); higher = more growth (less inhibition), active = hit call of the paper
conditionSummary: 20 µM; 24 h
reportedProperty: growth AUC

>>> observedvalue("Oc1ccc(Cl)cc1Cl")
0.969
>>> observedvalue("Clc1ccc(C2(Cn3cncn3)CC(Br)CO2)c(Cl)c1 (stereo not given)")
0.961
>>> observedvalue("C=CC1(C)OC(=O)N(c2cc(Cl)cc(Cl)c2)C1=O (stereo not given)")
0.982
>>> observedvalue("C[C@@H](Oc1ccc(Cl)cc1Cl)C(=O)O")
0.98
>>> observedvalue("Cc1cc(Cl)ccc1N=CN(C)C")
1.01
>>> observedvalue("CCC(C)c1cc([N+](=O)[O-])cc([N+](=O)[O-])c1O (stereo not given)")
0.799
>>> observedvalue("CCSCCSP(=S)(OC)OC")
1.07
>>> observedvalue("CCOP(=S)(OCC)SCSCC")
0.984
>>> observedvalue("C[C@@H](Oc1ccc(Oc2cnc3cc(Cl)ccc3n2)cc1)C(=O)O")
0.97
>>> observedvalue("OC(c1ccc(Cl)cc1)(c1ccc(Cl)cc1)C(Cl)(Cl)Cl")
0.687

* * *

Test system: Roseburia intestinalis
experimentSummary: growth AUC relative to DMSO control (median of replicates) (fraction); higher = more growth (less inhibition), active = hit call of the paper
conditionSummary: 20 µM; 24 h
reportedProperty: growth AUC

>>> observedvalue("CCC/C(=N\\OCC)C1=C(O)CC(CC(C)SCC)CC1=O (stereo not drawn)")
1
>>> observedvalue("CC(C)N(C(=O)SCC(Cl)=C(Cl)Cl)C(C)C")
1.01
>>> observedvalue("CCOC(=O)CCN(Cc1ccccc1)SN(C)C(=O)O/N=C(/C)SC")
0.987
>>> observedvalue("C=CCN(CC=C)C(=O)C(Cl)Cl")
1
>>> observedvalue("Fc1ccc(Oc2ccnc3cc(Cl)cc(Cl)c23)cc1")
1.02
>>> observedvalue("CCCCNC(=O)n1c(NC(=O)OC)nc2ccccc21")
0.985
>>> observedvalue("Oc1ccc(Cl)cc1")
0.972
>>> observedvalue("Cc1ccc(N=CN(C)C=Nc2ccc(C)cc2C)c(C)c1")
0.983

* * *

Tested on: Eubacterium rectale
experimentSummary: growth AUC relative to DMSO control (median of replicates) (fraction); higher = more growth (less inhibition), active = hit call of the paper
conditionSummary: 20 µM; 24 h
reportedProperty: growth AUC

>>> observedvalue("O=C1C=CC(=O)C=C1")
0.986
>>> observedvalue("CCOP(=S)(OCC)SCCSCC")
0.971
>>> observedvalue("ClC1=C(Cl)C2(Cl)C3C4C=CC(C4)C3C1(Cl)C2(Cl)Cl (configuration not stated)")
0.986
>>> observedvalue("CCOc1cc(Oc2ccc(C(F)(F)F)cc2Cl)ccc1[N+](=O)[O-]")
0.989
>>> observedvalue("O=C(O)COc1ccccc1")
1
>>> observedvalue("O=C(NC(=O)c1c(F)cccc1F)Nc1ccc(Cl)cc1")
1.01
>>> observedvalue("CCOc1cc(C(C)(C)C)ccc1C1COC(c2c(F)cccc2F)=N1 (configuration not stated)")
1

* * *

Below, each entry is listed alongside its reported growth AUC.
Tested on: Odoribacter splanchnicus
experimentSummary: growth AUC relative to DMSO control (median of replicates) (fraction); higher = more growth (less inhibition), active = hit call of the paper
conditionSummary: 20 µM; 24 h
reportedProperty: growth AUC

>>> observedvalue("CCc1cnc(C2=NC(C)(C(C)C)C(=O)N2)c(C(=O)O)c1 (centres undefined)")
0.961
>>> observedvalue("Nc1c(Cl)c(F)nc(OCC(=O)O)c1Cl")
1
>>> observedvalue("COCC(C)N(C(=O)CCl)c1c(C)csc1C (centres undefined)")
0.822
>>> observedvalue("COC(=O)COc1ccc(Cl)cc1Cl")
1.14
>>> observedvalue("O=C(O)C(F)(F)C(F)(F)C(F)(F)C(F)(F)C(F)(F)C(F)(F)C(F)(F)C(F)(F)C(F)(F)F")
0.993
>>> observedvalue("NCCO.O=C(O)c1nc(Cl)ccc1Cl")
1.02
>>> observedvalue("CCCCN(CCCC)N=O")
1
>>> observedvalue("C=C(C)CN(CC)c1c([N+](=O)[O-])cc(C(F)(F)F)cc1[N+](=O)[O-]")
1.01
>>> observedvalue("COc1cc(OC)nc(Sc2cccc(Cl)c2C(=O)O)n1")
0.985
>>> observedvalue("CCOP(=O)(Sc1ccccc1)Sc1ccccc1")
0.965
>>> observedvalue("Oc1cc(Cl)c(Cl)cc1Cl")
1.12
>>> observedvalue("Cc1ccc2nc3sc(=O)sc3nc2c1")
1.14
>>> observedvalue("CCCCCCCC(=O)Oc1c(I)cc(C#N)cc1I")
0.91
>>> observedvalue("O=c1c2cc(F)ccc2nc(-n2cncn2)n1-c1ccc(Cl)cc1Cl")
0.977
>>> observedvalue("N#Cc1nn(-c2c(Cl)cc(C(F)(F)F)cc2Cl)c(N)c1S(=O)C(F)(F)F (centres undefined)")
0.93
>>> observedvalue("CCN(CC)c1c([N+](=O)[O-])cc(C(F)(F)F)c(N)c1[N+](=O)[O-]")
0.955
>>> observedvalue("CCOc1cc(C(C)(C)C)ccc1C1COC(c2c(F)cccc2F)=N1 (centres undefined)")
1.04
>>> observedvalue("CCCN(CCOc1c(Cl)cc(Cl)cc1Cl)C(=O)n1ccnc1")
0.94
>>> observedvalue("ClC1(Cl)C2(Cl)C3(Cl)C4(Cl)C(Cl)(Cl)C5(Cl)C3(Cl)C1(Cl)C5(Cl)C24Cl (centres undefined)")
0.982
>>> observedvalue("CCC(C)(CC)c1cc(NC(=O)c2c(OC)cccc2OC)on1")
1.04
>>> observedvalue("OCC1C(CO)C2(Cl)C(Cl)=C(Cl)C1(Cl)C2(Cl)Cl (centres undefined)")
0.59
>>> observedvalue("CCOC(=O)c1ccccc1S(=O)(=O)NC(=O)Nc1nc(Cl)cc(OC)n1")
1.1
>>> observedvalue("CN/C(=N\\[N+](=O)[O-])NCc1cnc(Cl)s1")
1.02
>>> observedvalue("N#Cc1sc2c(=O)c3ccccc3c(=O)c=2sc1C#N")
0.926

* * *

System: Bacteroides thetaiotaomicron
experimentSummary: growth AUC relative to DMSO control (median of replicates) (fraction); higher = more growth (less inhibition), active = hit call of the paper;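 active = AUC reduced over 20% with Padj below 0.05 in at least 2 of 3 replicates; inactive = otherwise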
conditionSummary: 20 µM; 24 h
Outcomes: label 1 for active, label 0 for inactive

>>> classlabel("COP(=S)(NC(C)C)Oc1ccccc1C(=O)OC(C)C (stereo not drawn)")
"label 0"
>>> classlabel("CCNc1nc(NC(C)(C)C)nc(SC)n1")
"label 0"
>>> classlabel("O=P(O)(O)CCCl")
"label 0"
>>> classlabel("COP(=S)(Oc1cc(Cl)c(Br)cc1Cl)c1ccccc1 (stereo not drawn)")
"label 0"
>>> classlabel("Oc1ccc(C(c2ccc(O)cc2)(C(F)(F)F)C(F)(F)F)cc1")
"label 1"
>>> classlabel("CNC(=O)Oc1ccc(N(C)C)c(C)c1")
"label 0"
>>> classlabel("O=C1C[C@@H]2OCC=C3CN4CC[C@]56c7ccccc7N1[C@H]5[C@H]2[C@H]3C[C@H]46")
"label 0"
>>> classlabel("O=C(OC1CCCCC1)c1ccccc1C(=O)OC1CCCCC1")
"label 0"
>>> classlabel("CCSC(C)CC1CC(=O)C(/C(CC)=N/OC/C=C/Cl)=C(O)C1 (mixture of isomers)")
"label 0"
>>> classlabel("CC(C1CC1)C(O)(Cn1cncn1)c1ccc(Cl)cc1 (mixture of isomers)")
"label 0"
>>> classlabel("CC(C)N1C(=O)c2ccccc2NS1(=O)=O")
"label 0"
>>> classlabel("COP(=S)(OC)SC(CC(=O)O)C(=O)O (stereo not drawn)")
"label 0"
>>> classlabel("CCOP(=S)(OCC)SCCS(=O)(=O)CC")
"label 0"
>>> classlabel("Clc1ccc(Cl)cc1")
"label 0"
>>> classlabel("CCC(C)(C)C(=O)OC1=C(c2ccc(Cl)cc2Cl)C(=O)OC12CCCCC2")
"label 0"
>>> classlabel("O=C(Nc1ccc(F)cc1F)c1cccnc1Oc1cccc(C(F)(F)F)c1")
"label 0"
>>> classlabel("O=NN(CCO)CCO")
"label 0"
>>> classlabel("COc1ccc(C(c2ccc(OC)cc2)C(Cl)(Cl)Cl)cc1")
"label 1"
>>> classlabel("CCOc1ccc(C(C)(C)COCc2cccc(Oc3ccccc3)c2)cc1")
"label 0"
>>> classlabel("CCOCN(C(=O)CCl)c1c(C)cccc1CC")
"label 0"
>>> classlabel("BrCCBr")
"label 0"
>>> classlabel("Oc1ccc(Cl)cc1Cl")
"label 0"
>>> classlabel("CCc1nn(C)c(C(=O)NCc2ccc(Oc3ccc(C)cc3)cc2)c1Cl")
"label 0"
